system_tested: Eukaryotic translation initiation factor 2-alpha kinase 3 (Homo sapiens, UniProt Q9NZJ5)
Sequence (Q9NZJ5 whole entry): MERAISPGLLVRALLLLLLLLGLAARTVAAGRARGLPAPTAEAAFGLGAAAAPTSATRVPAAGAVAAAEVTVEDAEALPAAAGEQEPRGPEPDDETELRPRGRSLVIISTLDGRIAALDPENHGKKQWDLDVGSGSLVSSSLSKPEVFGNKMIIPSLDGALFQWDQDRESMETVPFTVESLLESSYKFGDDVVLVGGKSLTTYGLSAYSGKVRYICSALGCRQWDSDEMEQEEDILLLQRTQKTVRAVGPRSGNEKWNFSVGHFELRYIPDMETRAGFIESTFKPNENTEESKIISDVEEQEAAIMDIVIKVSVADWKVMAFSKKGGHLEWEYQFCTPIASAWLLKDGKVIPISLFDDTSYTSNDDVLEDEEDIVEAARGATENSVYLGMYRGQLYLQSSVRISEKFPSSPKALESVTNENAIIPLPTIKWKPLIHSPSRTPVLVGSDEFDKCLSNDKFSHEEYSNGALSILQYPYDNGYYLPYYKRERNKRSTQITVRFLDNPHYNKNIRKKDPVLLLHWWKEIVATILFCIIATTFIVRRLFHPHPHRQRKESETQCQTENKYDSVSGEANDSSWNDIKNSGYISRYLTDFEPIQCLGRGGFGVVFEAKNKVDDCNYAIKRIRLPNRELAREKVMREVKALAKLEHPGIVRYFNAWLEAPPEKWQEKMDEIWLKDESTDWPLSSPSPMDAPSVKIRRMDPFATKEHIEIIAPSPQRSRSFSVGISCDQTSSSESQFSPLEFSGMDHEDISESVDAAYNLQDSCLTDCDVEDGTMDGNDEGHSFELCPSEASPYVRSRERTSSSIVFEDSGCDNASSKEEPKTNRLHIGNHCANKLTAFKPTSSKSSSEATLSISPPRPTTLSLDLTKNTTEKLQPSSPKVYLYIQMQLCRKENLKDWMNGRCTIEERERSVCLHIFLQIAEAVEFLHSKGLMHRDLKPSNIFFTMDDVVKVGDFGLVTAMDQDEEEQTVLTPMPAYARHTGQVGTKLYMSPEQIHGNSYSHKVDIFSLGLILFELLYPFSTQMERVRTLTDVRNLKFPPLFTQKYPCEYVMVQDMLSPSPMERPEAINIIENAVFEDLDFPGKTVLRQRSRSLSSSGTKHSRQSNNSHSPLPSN
I'd appreciate it if you could supply IC50 values for the items below.

Guide cases for IC50, answers given:
chemical_structure	IC50
Nc1nccc2scc(-c3ccc4c(c3)CCN4C(=O)Cc3ccccc3)c12	< 15 nM
Cc1ccc(CC(=O)N2CCc3cc(-c4cn(C)c5ncnc(N)c45)ccc32)cc1	17 nM

Problem: So what IC50 did Nc1nccc2scc(-c3ccc4c(c3)CCN4C(=O)Cc3cc(F)ccc3F)c12 get with Eukaryotic translation initiation factor 2-alpha kinase 3 (Homo sapiens, UniProt Q9NZJ5)?
Result: < 15 nM

====

I'd appreciate it if you could supply inhibition values for the items below.
system_tested: Serine/threonine-protein kinase Nek5 (Homo sapiens) (UniProt Q6P3R8)
Sequence (Q6P3R8 whole entry): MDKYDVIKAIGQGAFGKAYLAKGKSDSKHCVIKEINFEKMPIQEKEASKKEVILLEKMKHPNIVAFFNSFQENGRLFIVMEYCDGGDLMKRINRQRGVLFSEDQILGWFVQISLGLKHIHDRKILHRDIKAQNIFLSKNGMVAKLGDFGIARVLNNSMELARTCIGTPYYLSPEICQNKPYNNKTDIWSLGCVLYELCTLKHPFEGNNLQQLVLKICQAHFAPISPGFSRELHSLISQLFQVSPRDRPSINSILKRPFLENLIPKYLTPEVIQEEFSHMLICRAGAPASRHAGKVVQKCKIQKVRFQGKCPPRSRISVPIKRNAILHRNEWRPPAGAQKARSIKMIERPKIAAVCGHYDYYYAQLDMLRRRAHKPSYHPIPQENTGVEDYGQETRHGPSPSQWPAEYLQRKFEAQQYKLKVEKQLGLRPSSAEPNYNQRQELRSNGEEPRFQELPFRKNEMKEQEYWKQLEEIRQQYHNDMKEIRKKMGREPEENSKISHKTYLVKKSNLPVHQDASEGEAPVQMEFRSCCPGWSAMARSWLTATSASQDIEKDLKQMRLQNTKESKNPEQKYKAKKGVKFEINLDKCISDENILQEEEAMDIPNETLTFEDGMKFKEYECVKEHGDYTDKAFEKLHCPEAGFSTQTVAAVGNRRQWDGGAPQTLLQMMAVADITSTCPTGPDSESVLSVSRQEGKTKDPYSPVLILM
protocol_text: Inhibition of NEK5 (unknown origin) at 1 uM relative to control
In your response, put the unit directly after the numeric value.

Guide cases for inhibition, answers given:
chemical_structure	inhibition
O=C1NC(=O)C(c2ccccc2Cl)=C1Nc1cccc(Cl)c1	7%
COc1cccc(C2=C(Nc3cccc(Cl)c3)C(=O)NC2=O)c1	0%
Cn1cc(-c2cnc(N)c3c(-c4ccc5c(c4)CCN5C(=O)Cc4ccccc4)csc23)cn1	5%
Cn1cc(-c2ccc3c(c2)CCN3C(=O)Cc2cccc(F)c2)c2c(N)ncnc21	28%
Cn1cc(-c2ccc3c(c2)CCN3C(=O)Cc2cccc(C(F)(F)F)c2)c2c(N)ncnc21	0%

Problem: Name the recorded inhibition for CC(C)c1nc(-c2cccc(NS(=O)(=O)c3c(F)cccc3F)c2F)c(-c2ccnc(Nc3ccc(N4CCOCC4)nc3)n2)s1 .
Result: 24%

====

system_tested: Serine/threonine-protein kinase Nek10 (Homo sapiens)
protocol_text: Inhibition of NEK10 (unknown origin) at 1 uM relative to control
readout_kind: inhibition (%)
One number for each entry, in %.

chemical_structure	units_of_measure	inhibition
COc1cccc(C2=C(Nc3cccc(O)c3)C(=O)NC2=O)c1	%	67
Cn1cc(-c2ccc3c(c2)CCN3C(=O)Cc2ccccc2Cl)c2c(N)ncnc21	%	0
CN(C)CCNS(=O)(=O)c1ccc(-c2ccnc3[nH]ccc23)cc1	%	17
O=C1NC(=O)C(c2ccccc2Cl)=C1Nc1cccc(Cl)c1	%	51
CC(C)(C)c1nc(-c2cccc(NS(=O)(=O)c3c(F)cccc3F)c2F)c(-c2ccnc(N)n2)s1	%	56
Cc1cc2cn[nH]c2cc1-c1cccc2c(N)c(C(N)=O)nnc12	%	86

For each of the compounds below, note its inhibition.
1. Nc1nccc2scc(-c3ccc4c(c3)CCN4C(=O)Cc3cc(F)ccc3F)c12
2. Cn1cc(-c2ccc3c(c2)CCN3C(=O)Cc2cccc(Cl)c2)c2c(N)ncnc21
3. Cn1cc(-c2ccc3c(c2)CCN3C(=O)Cc2cc(F)cc(C(F)(F)F)c2)c2c(N)ncnc21

Result:
[12, 18, 6]

For each of the compounds below, note its inhibition.
1. NC(=O)c1nnc2ccccc2c1N
2. Cn1cc(-c2ccc3c(c2)CCN3C(=O)Cc2cc(F)cc(F)c2F)c2c(N)ncnc21
3. NCCNS(=O)(=O)c1ccc(-c2ccnc3[nH]ccc23)cc1
4. COc1cc(Nc2ncc3c(C)nc(-c4cc5ccccc5[nH]4)n3n2)cc(OC)c1OC
5. CC(C)Oc1ccc2c(-c3ccnc(Nc4ccc(N5CCN(C)CC5)cc4)n3)cnn2n1
6. Cn1cc(-c2cnc(N)c3c(-c4ccc5c(c4)CCN5C(=O)Cc4ccccc4)csc23)cn1
7. Cn1cc(-c2ccc3c(c2)CCN3C(=O)Cc2cccc(C(F)(F)F)c2)c2c(N)ncnc21

Result:
85
10
69
0
2.4
22
18

For each of the compounds below, note its inhibition.
1. Cc1ccc(CC(=O)N2CCc3cc(-c4cn(C)c5ncnc(N)c45)ccc32)cc1
2. O=c1[nH]ccc2nc(N[C@@H]3CCCNC3)nc(Nc3ccc(S(=O)(=O)N4CCOCC4)cc3)c12
3. Cc1ccccc1CC(=O)N1CCc2cc(-c3cn(C)c4ncnc(N)c34)ccc21

Result:
[0, 4.4, 0]

For each of the compounds below, note its inhibition.
1. COc1cccc(C2=C(Nc3ccc(Cl)c(C(=O)O)c3)C(=O)NC2=O)c1
2. COc1ccc(Nc2ncc(C#N)c(Nc3ccccc3C(N)=O)n2)cc1N1CCN(C)CC1
3. Cn1cc(-c2ccc3c(c2)CCN3C(=O)Cc2cccc(F)c2)c2c(N)ncnc21
4. Nc1nccc2scc(-c3ccc4c(c3)CCN4C(=O)Cc3ccccc3)c12
5. CC(C)c1nc(-c2cccc(NS(=O)(=O)c3ccccc3)c2)c(-c2ccnc(Nc3ccc4c(c3)CN(C)CC4)n2)s1
6. COc1cccc(CC(=O)N2CCc3cc(-c4cn(C)c5ncnc(N)c45)ccc32)c1
7. O=S(=O)(c1ccc(-c2ccnc3[nH]ccc23)cc1)N1CCCC1

Result:
1: 73; 2: 5.9; 3: 22; 4: 9; 5: 100; 6: 7; 7: 15

====

system_tested: Serine/threonine-protein kinase Nek9 (Homo sapiens, UniProt Q8TD19)
Sequence (Q8TD19 whole entry): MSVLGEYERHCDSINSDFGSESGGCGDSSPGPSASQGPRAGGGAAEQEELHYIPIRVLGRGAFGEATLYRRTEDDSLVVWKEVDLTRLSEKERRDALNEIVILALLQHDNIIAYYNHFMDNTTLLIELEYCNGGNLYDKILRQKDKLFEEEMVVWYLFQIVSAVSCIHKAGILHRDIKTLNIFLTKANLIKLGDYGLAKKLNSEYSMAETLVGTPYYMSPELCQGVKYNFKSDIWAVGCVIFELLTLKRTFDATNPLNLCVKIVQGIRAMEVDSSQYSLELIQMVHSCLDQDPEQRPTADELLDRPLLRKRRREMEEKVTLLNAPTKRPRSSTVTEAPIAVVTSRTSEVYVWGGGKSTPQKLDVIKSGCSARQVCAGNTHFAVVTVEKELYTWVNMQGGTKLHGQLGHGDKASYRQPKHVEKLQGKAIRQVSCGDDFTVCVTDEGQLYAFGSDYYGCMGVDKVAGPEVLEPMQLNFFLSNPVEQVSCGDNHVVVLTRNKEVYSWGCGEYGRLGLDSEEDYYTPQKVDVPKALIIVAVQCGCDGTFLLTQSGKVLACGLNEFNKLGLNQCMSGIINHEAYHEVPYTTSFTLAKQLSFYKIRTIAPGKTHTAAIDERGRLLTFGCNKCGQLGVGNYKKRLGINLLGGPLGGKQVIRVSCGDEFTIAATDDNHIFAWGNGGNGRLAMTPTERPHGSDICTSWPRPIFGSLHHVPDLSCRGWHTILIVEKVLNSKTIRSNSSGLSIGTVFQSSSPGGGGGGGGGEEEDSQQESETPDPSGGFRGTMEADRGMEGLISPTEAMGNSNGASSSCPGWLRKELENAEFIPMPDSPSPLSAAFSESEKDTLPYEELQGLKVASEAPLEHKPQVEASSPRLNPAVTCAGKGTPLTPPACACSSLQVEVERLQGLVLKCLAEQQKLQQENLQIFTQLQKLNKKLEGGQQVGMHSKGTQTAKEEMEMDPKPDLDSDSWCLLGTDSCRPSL
protocol_text: Inhibition of NEK9 (unknown origin)
readout_kind: IC50 (µM)
Answers are plain numbers, in µM.

Problem: Name the recorded IC50 for N#CCNC(=O)c1ccc(-c2ccnc(Nc3ccc(N4CCOCC4)cc3)n2)cc1 .
Result: 0.1

====

system_tested: Serine/threonine-protein kinase Nek2 (Homo sapiens)
Sequence (whole entry): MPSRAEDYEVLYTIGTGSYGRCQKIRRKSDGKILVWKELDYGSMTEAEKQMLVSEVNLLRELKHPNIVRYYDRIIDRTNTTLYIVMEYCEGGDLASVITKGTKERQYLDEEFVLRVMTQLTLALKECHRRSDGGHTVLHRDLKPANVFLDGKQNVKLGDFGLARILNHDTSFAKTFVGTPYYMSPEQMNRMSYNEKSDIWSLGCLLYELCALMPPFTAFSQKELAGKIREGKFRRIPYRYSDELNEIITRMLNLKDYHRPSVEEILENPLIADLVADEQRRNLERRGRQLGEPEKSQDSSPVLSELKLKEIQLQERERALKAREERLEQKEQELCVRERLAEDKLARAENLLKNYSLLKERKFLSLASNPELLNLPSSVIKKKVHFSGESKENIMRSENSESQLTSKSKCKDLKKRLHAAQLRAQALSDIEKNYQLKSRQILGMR
protocol_text: Inhibition of NEK2 (unknown origin) at 1 uM relative to control
Given measured inhibition, output Criterion met if it is greater than or equal to 70% and Criterion not met if not.

Example results:
chemical_structure	class_assignment
COc1cc(Nc2ncc3c(C)nc(-c4cccc(Oc5ccccc5)c4)n3n2)cc(OC)c1OC	Criterion not met
c1ccc(-c2ccnc3[nH]ccc23)cc1	Criterion met
O=C1NC(=O)C(c2ccccc2Cl)=C1Nc1cccc(Cl)c1	Criterion not met
Nc1ncc(-c2cn[nH]c2)c2scc(-c3ccc4c(c3)CCN4C(=O)Cc3ccccc3)c12	Criterion met
COc1cc(Nc2ncc3c(C)nc(-c4cccc(C(F)(F)F)c4)n3n2)cc(OC)c1OC	Criterion not met

Problem: Does the reported inhibition for Cn1cc(-c2cnc(N)c3c(-c4ccc5c(c4)CCN5C(=O)Cc4ccccc4)csc23)cn1 fall at or above the 70% mark?
Result: Criterion not met

Problem: Does the reported inhibition for Cc1ccc(CC(=O)N2CCc3cc(-c4cn(C)c5ncnc(N)c45)ccc32)cc1 fall at or above the 70% mark?
Result: Criterion met

Problem: Does the reported inhibition for COc1ccc(Nc2ncc(C#N)c(Nc3ccccc3C(N)=O)n2)cc1N1CCN(C)CC1 fall at or above the 70% mark?
Result: Criterion not met

Problem: Does the reported inhibition for Nc1nccc2scc(-c3ccc4c(c3)CCN4C(=O)Cc3cc(F)ccc3F)c12 fall at or above the 70% mark?
Result: Criterion not met

Hello, the source for this data is ChEMBL document CHEMBL5252509, in case you need it.
